Values compiled from ChEMBL document CHEMBL4371005.

- target_system: Cytochrome P450 2C9 (Homo sapiens)
- Sequence (P11712 whole entry): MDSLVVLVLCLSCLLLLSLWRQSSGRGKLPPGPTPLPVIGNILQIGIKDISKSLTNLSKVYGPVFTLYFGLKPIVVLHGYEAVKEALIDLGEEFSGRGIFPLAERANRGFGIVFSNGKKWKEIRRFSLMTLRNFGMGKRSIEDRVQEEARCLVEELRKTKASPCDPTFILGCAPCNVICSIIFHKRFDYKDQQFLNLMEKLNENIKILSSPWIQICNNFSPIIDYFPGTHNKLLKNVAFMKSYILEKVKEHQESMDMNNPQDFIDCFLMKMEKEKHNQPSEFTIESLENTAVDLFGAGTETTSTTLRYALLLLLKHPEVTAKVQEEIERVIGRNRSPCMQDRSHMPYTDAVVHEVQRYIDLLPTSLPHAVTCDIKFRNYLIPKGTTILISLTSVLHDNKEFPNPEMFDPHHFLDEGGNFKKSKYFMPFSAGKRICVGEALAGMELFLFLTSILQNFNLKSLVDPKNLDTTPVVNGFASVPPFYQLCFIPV
pIC50: −log10 of the molar value.
test_readout: pIC50

INSERT INTO measurements (smiles_representation, result) VALUES
  ('Cc1ccnc(NC(=O)c2ccsc2NC(=O)c2ccn3cnnc3c2)n1', '< 4.30');

====

- assay_overview: Inhibition of Mycobacterium tuberculosis DprE1 using FPR as substrate by resazurin dye-based fluorescence assay
pIC50: −log10 of the molar value.
test_readout: pIC50

INSERT INTO results (smiles_representation, numeric_readout) VALUES
  ('O=C(C1CCN(c2nnc(-n3cccc3)s2)CC1)N1CCC(Cc2ccccc2)CC1', 7.27);

====

- target_system: Decaprenylphosphoryl-beta-D-ribose oxidase (Mycobacterium tuberculosis (strain ATCC 25618 / H37Rv))
- Sequence (P9WJF1 whole entry): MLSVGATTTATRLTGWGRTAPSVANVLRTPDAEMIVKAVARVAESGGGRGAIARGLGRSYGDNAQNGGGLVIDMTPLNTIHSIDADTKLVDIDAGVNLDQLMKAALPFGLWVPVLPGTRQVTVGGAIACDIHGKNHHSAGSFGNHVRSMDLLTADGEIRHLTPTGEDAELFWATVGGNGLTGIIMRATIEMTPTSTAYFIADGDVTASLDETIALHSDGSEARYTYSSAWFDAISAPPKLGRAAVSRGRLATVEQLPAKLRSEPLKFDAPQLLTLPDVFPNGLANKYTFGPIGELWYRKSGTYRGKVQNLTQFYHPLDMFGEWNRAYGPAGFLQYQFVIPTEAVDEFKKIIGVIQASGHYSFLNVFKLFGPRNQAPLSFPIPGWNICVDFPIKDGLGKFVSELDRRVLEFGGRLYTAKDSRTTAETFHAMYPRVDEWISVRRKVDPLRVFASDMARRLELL
- assay_overview: Inhibition of N-terminal His6-thioredoxin tagged Mycobacterium tuberculosis H37Rv DprE1 expressed in Escherichia coli BL21(DE3) using FPR as substrate by resazurin dye-based fluorescence assay
test_readout: IC50 (nM)

INSERT INTO results (smiles_representation, numeric_readout) VALUES
  ('Cc1ccnc(NC(=O)c2ccsc2NC(=O)c2ccn3cnnc3c2)n1', 30),
  ('CCOC(=O)NC(=O)c1ccsc1NC(=O)c1ccn2cnnc2c1', 60);
